- targetSystem: Insulin receptor (Homo sapiens); further: in the data inactive means no Kd found up to 30 µM
- Sequence (P06213 28-758 limits assumed): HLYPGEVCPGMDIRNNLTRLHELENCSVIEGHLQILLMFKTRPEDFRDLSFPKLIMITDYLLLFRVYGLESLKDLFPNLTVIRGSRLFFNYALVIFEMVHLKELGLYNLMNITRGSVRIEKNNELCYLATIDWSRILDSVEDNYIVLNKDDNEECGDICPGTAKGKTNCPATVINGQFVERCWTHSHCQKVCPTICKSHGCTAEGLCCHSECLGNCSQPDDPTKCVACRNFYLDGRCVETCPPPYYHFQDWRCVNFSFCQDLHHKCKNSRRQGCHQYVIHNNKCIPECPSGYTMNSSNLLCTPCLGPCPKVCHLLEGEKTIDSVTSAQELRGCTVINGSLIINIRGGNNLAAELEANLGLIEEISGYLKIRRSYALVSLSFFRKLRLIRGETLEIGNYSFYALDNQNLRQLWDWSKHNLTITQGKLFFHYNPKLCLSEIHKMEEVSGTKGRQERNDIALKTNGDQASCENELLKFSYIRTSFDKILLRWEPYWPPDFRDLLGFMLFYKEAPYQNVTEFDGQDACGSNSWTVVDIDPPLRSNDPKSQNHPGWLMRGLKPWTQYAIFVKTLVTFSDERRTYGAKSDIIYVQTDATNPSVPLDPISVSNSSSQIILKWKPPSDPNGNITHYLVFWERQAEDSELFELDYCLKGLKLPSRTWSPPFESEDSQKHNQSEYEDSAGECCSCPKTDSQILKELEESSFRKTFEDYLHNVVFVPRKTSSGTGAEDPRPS
- Sequence (P06213 763-1382 limits assumed): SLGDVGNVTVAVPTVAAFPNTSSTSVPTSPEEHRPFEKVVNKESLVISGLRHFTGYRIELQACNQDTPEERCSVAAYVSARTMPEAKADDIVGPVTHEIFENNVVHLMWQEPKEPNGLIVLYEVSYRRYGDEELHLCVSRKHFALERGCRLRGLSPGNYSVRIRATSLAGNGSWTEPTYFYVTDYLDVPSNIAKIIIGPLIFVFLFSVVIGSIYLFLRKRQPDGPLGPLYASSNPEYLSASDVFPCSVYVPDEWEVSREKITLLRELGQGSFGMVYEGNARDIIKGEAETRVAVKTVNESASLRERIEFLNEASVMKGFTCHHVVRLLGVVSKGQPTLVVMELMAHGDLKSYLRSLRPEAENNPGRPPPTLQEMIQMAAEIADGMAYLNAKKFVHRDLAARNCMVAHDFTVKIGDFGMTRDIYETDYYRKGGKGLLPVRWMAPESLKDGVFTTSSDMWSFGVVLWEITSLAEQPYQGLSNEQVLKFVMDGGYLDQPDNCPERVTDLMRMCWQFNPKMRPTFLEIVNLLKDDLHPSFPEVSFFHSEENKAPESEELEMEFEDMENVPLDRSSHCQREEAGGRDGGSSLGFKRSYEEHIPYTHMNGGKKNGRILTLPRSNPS
Calls of active or inactive are those of the source.
API: response.call in true = active, false = inactive

Worked examples follow.
[
  {
    "compound": "CC[C@@H]1C(=O)N(C)c2cnc(Nc3ccc(C(=O)N[C@H]4CC[C@H](N5CCN(CC6CC6)CC5)CC4)cc3OC)nc2N1C(C)C [VOLASERTIB]",
    "targetSystem": "Insulin receptor (Homo sapiens)",
    "qualitativeLabel": "false"
  },
  {
    "compound": "O=C(c1ccc(F)c(F)c1Nc1ccc(I)cc1F)N1CC(O)([C@@H]2CCCCN2)C1 [COBIMETINIB]",
    "targetSystem": "Insulin receptor (Homo sapiens)",
    "qualitativeLabel": "false"
  },
  {
    "compound": "COC(=O)[C@@]1(O)C[C@H]2O[C@]1(C)n1c3ccccc3c3c4c(c5c6ccccc6n2c5c31)C(=O)NC4 [K-252A]",
    "targetSystem": "Insulin receptor (Homo sapiens)",
    "qualitativeLabel": "false"
  },
  {
    "compound": "CNS(=O)(=O)Nc1nccc(Cc2c(C)c3ccc(Oc4ncccn4)cc3oc2=O)c1F [AVUTOMETINIB]",
    "targetSystem": "Insulin receptor (Homo sapiens)",
    "qualitativeLabel": "false"
  },
  {
    "compound": "Cn1cc(-c2ccc(F)c(C(F)(F)F)c2)nc1C1CCN(c2ncnc3[nH]ncc23)CC1 [LY-2584702]",
    "targetSystem": "Insulin receptor (Homo sapiens)",
    "qualitativeLabel": "false"
  }
]

So what was the verdict on COc1cc(N2CCC(N3CCN(C)CC3)CC2)ccc1Nc1ncnc(Nc2ccccc2S(=O)(=O)C(C)C)n1 [ASP-3026] in this test?
true

For CCn1c(=O)c(-c2cc[nH]n2)cc2c(C)nc(N)nc21 [VOXTALISIB] , which call appears in the assay record?
false

Identify the outcome logged in this assay for the compound shown: Cc1cc(-c2cc(O)ccc2Cl)cc2nnc(Nc3ccc(OCCN4CCCC4)cc3)nc12
false

Dear colleague, could you share the recorded outcome for CN1N=C(N)c2cn([C@@H]3O[C@H](COP(=O)(O)O)[C@@H](O)[C@H]3O)c3ncnc1c23 [TRICIRIBINE PHOSPHATE] when you have a moment?
false

Each compound tested received a call. Report the one for CN1CCC(COc2cnc(-c3cccc(Cn4nc(-c5cccc(C#N)c5)ccc4=O)c3)nc2)CC1 [TEPOTINIB] .
false

Hey, what did the test say about C[C@@H](c1ccc2nccn2c1)n1nnc2ncc(-c3cnn(C)c3)nc21 [SAVOLITINIB] ?
false

Could you check what this test reported for COCCNCc1ccc(-c2cc3nccc(Oc4ccc(NC(=S)NC(=O)Cc5ccc(F)cc5)cc4F)c3s2)nc1 [GLESATINIB] ?
false

Status in this test for Cc1c(F)cc(C(=O)NC2CC2)cc1-c1ccc(C(=O)NCC(C)(C)C)cn1 [LOSMAPIMOD] ?
false

----------
- targetSystem: Ribosyldihydronicotinamide dehydrogenase [quinone] (Homo sapiens, UniProt P16083); further: in the data inactive means no Kd found up to 30 µM
- Sequence (P16083 whole entry): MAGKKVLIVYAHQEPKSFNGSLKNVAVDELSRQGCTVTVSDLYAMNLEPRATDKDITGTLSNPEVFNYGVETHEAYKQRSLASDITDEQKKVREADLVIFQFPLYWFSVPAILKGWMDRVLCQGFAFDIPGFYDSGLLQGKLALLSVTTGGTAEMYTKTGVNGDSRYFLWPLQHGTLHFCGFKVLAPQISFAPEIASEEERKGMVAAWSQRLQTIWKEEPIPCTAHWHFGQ
Activity calls are given as the source filed them.
In this exercise, the only acceptable responses are True for active, False for inactive

[
  {
    "structureAsSmiles": "CNC(=O)CN1CCC(Oc2cc3c(Nc4cccc(Cl)c4F)ncnc3cc2OC)CC1",
    "qualitativeLabel": "False"
  }
]

How did this test come out for COc1cc2nccc(Oc3ccc(NC(=O)NC4CC4)c(Cl)c3)c2cc1C(N)=O ?
True

Which outcome was assigned to CCCS(=O)(=O)Nc1ccc(F)c(C(=O)c2c[nH]c3ncc(-c4ccc(Cl)cc4)cc23)c1F in this test?
False

I'd appreciate the recorded outcome for CN(C)C(=O)c1cc2cnc(Nc3ccc(N4CCNCC4)cn3)nc2n1C1CCCC1 from this test.
False

----------
- targetSystem: UniProtKB Q6ZSR9
- Sequence (Q6ZSR9 whole entry): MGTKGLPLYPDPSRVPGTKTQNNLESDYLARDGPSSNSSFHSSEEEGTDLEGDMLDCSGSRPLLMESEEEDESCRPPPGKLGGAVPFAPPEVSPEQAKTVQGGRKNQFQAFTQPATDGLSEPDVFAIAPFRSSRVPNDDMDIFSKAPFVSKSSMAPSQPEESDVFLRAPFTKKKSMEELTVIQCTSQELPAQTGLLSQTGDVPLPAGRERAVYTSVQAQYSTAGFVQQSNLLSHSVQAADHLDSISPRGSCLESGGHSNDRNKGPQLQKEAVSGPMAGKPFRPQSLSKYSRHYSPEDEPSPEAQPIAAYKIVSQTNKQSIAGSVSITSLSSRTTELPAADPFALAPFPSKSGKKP
- conditionDetails: read-out: Kd apparent; k-562, colo 205, sk-n-be(2) and mv-4-11; further: in the data inactive means no Kd found up to 30 µM
The source made the active and inactive calls.
Result category, one only: active, inactive

[
  {
    "compound": "CCN1CCN(Cc2ccc(-c3cc4c(N[C@H](C)c5ccccc5)ncnc4[nH]3)cc2)CC1 [AEE-788]",
    "qualitativeLabel": "inactive"
  },
  {
    "compound": "CCS(=O)(=O)N1CC(CC#N)(n2cc(-c3ncnc4[nH]ccc34)cn2)C1 [BARICITINIB]",
    "qualitativeLabel": "active"
  },
  {
    "compound": "Cc1ccc(S(=O)(=O)Nc2nc3ccccc3nc2Nc2ccc3nsnc3c2)cc1",
    "qualitativeLabel": "inactive"
  },
  {
    "compound": "CCn1c(-c2nonc2N)nc2c(C#CC(C)(C)O)ncc(OC[C@H]3CCCNC3)c21 [GSK-690693]",
    "qualitativeLabel": "inactive"
  },
  {
    "compound": "Cc1cc2c(F)c(Oc3ncnn4cc(OC[C@@H](C)OC(=O)[C@H](C)N)c(C)c34)ccc2[nH]1 [BRIVANIB ALANINATE]",
    "qualitativeLabel": "inactive"
  }
]

Now look at this entry.
Name the outcome recorded for COc1cc(N2CCC(N3CCN(C)CC3)CC2)ccc1Nc1ncnc(Nc2ccccc2S(=O)(=O)C(C)C)n1 [ASP-3026] in the assay.
active

----------
- targetSystem: UniProtKB P29323
- Sequence (P29323 whole entry): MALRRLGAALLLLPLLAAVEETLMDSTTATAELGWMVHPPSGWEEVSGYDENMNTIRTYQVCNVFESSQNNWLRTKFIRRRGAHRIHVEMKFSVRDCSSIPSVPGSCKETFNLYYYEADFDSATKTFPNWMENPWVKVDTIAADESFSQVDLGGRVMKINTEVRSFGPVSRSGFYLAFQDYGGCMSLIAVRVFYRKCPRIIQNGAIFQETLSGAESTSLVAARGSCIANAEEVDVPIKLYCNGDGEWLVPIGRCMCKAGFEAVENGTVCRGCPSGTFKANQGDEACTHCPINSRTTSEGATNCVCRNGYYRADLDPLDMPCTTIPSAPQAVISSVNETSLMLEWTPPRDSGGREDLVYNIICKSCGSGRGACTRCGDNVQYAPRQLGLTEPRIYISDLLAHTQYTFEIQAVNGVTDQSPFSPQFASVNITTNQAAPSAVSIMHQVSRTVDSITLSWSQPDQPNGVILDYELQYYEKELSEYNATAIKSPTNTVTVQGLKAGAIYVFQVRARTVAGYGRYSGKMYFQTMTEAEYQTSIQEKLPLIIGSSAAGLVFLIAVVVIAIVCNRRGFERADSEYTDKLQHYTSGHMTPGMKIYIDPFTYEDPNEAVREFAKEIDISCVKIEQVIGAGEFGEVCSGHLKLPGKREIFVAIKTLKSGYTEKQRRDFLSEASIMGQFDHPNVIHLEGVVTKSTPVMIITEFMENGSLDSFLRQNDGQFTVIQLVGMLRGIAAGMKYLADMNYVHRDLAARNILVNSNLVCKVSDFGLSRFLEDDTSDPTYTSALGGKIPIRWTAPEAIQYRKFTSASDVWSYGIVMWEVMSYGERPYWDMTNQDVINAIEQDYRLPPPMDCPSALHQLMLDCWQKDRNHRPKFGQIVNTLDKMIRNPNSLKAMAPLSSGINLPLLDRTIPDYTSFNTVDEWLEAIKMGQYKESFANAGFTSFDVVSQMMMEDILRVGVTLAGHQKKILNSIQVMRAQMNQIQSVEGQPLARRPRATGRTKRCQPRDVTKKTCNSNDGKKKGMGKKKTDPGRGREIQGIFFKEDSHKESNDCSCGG
Calls of active or inactive are those of the source.
Hi there, use one of these labels in your reply, thanks! true (active), false (inactive)

Use these answered entries as a reference point.
[
  {
    "compound": "COc1cc2nccc(Oc3ccc(NC(=O)Nc4cc(C)on4)c(Cl)c3)c2cc1OC [TIVOZANIB]",
    "qualitativeLabel": "true"
  },
  {
    "compound": "CCS(=O)(=O)N1CC(CC#N)(n2cc(-c3ncnc4[nH]ccc34)cn2)C1 [BARICITINIB]",
    "qualitativeLabel": "false"
  },
  {
    "compound": "Cc1ccc(-n2nc(C(C)(C)C)cc2NC(=O)NCc2cc(F)ccc2Oc2ccc3c(cnn3CCO)c2)cc1 [PEXMETINIB]",
    "qualitativeLabel": "false"
  },
  {
    "compound": "COc1cc(N2CCC(N3CCN(C)CC3)CC2)ccc1Nc1ncnc(Nc2ccccc2S(=O)(=O)C(C)C)n1 [ASP-3026]",
    "qualitativeLabel": "false"
  },
  {
    "compound": "O=C(O)[C@]1(Cc2cccc(Nc3nccs3)n2)CC[C@@H](Oc2cccc(Cl)c2F)CC1 [MK-5108]",
    "qualitativeLabel": "false"
  }
]

State the result this test recorded for C[C@@H]1CN(Cc2ccc(F)cc2)[C@@H](C)CN1C(=O)c1cc2c(C(=O)C(=O)N(C)C)cn(C)c2cc1Cl [TALMAPIMOD] .
false

Query: recorded result category for CN1CCC(COc2cnc(-c3cccc(Cn4nc(-c5cccc(C#N)c5)ccc4=O)c3)nc2)CC1 [TEPOTINIB] in this test
false

----------
- targetSystem: Discoidin domain-containing receptor 2 (Homo sapiens); further: in the data inactive means no Kd found up to 30 µM
- Sequence (Q16832 whole entry, the tested form may be a part): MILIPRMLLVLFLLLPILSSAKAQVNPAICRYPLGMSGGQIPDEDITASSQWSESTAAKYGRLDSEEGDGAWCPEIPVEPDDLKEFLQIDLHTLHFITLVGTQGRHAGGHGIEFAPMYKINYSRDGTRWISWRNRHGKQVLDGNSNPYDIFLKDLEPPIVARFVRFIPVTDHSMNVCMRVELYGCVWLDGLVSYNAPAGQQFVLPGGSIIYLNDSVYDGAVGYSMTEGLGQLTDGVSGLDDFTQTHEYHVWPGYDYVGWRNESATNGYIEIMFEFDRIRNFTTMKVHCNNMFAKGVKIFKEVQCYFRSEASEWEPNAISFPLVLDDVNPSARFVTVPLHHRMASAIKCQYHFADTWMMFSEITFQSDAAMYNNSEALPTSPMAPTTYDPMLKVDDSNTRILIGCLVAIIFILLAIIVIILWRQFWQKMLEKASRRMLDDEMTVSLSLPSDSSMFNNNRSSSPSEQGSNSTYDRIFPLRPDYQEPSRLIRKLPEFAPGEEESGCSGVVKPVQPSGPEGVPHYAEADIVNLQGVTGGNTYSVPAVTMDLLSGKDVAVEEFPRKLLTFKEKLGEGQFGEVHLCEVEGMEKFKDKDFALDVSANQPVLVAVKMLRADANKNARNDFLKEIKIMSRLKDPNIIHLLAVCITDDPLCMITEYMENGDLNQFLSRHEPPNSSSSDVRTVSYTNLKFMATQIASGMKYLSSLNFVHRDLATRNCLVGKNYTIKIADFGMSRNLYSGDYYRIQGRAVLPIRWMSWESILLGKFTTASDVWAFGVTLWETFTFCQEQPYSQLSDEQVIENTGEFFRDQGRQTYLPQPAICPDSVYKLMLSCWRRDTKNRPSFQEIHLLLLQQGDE
Active and inactive are the calls of the source.
In this exercise, the only acceptable responses are active, inactive

Consider the following illustrative entries.
[
  {
    "molecule": "CC(C)Nc1cc(-c2c[nH]c(C(=O)N[C@H](CO)c3cccc(Cl)c3)c2)c(Cl)cn1 [ULIXERTINIB]",
    "qualitativeLabel": "inactive"
  },
  {
    "molecule": "Cc1cc(Nc2cc(N3CCN(C)CC3)nc(/C=C/c3ccccc3)n2)n[nH]1 [ENMD-2076]",
    "qualitativeLabel": "active"
  },
  {
    "molecule": "CNC(=O)CN1CCC(Oc2cc3c(Nc4cccc(Cl)c4F)ncnc3cc2OC)CC1 [SAPITINIB]",
    "qualitativeLabel": "inactive"
  },
  {
    "molecule": "COc1ccc(-c2ccc3c(N4CCOC[C@@H]4C)nc(N4CCOC[C@@H]4C)nc3n2)cc1CO [AZD-8055]",
    "qualitativeLabel": "inactive"
  },
  {
    "molecule": "COc1cc(OC)c(/C=C/S(=O)(=O)Cc2ccc(OC)c(NCC(=O)O)c2)c(OC)c1 [RIGOSERTIB]",
    "qualitativeLabel": "inactive"
  }
]

Next, consider the following molecule.
Look up the recorded call for CN1CCC(COc2cnc(-c3cccc(Cn4nc(-c5cccc(C#N)c5)ccc4=O)c3)nc2)CC1 [TEPOTINIB] in this test.
inactive
